Sourced from patent US20070077617

- Assayed System: fusion protein PRC
- Sequence (chain, as listed by the source): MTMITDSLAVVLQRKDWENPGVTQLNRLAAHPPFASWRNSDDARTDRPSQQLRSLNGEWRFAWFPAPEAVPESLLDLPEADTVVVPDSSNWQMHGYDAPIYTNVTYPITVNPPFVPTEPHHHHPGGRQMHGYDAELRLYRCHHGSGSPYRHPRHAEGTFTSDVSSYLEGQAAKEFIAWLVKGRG
Quantity Kind: relative cleavage efficiency

Protein	Quantity Kind	Readout Value
OmpT protease variant OmpT D97W (protein) STETLSFTPDNINADISLGTLSGKTKERVYLAEEGGRKVSQLDWKFNNAAIIKGAINWDLMPQISIGAAGWTTLGSRGGNMVDQDWMDSSNPGTWTWESRHPDTQLNYANEFDLNIKGWLLNEPNYRLGLMAGYQESRYSFTARGGSYIYSSEEGFRDDIGSFPNGERAIGYKQRFKMPYIGLTGSYRYEDFELGGTFKYSGWVESSDNDEHYDPGKRITYRSKVKDQNYYSVAVNAGYYVTPNAKVYVEGAWNRVTNKKGNTSLYDHNNNTSDYSKNGAGIENYNFITTAGLKYTF	relative cleavage efficiency	less than 3.0%
OmpT protease variant OmpT D97K (protein) STETLSFTPDNINADISLGTLSGKTKERVYLAEEGGRKVSQLDWKFNNAAIIKGAINWDLMPQISIGAAGWTTLGSRGGNMVDQDWMDSSNPGTWTKESRHPDTQLNYANEFDLNIKGWLLNEPNYRLGLMAGYQESRYSFTARGGSYIYSSEEGFRDDIGSFPNGERAIGYKQRFKMPYIGLTGSYRYEDFELGGTFKYSGWVESSDNDEHYDPGKRITYRSKVKDQNYYSVAVNAGYYVTPNAKVYVEGAWNRVTNKKGNTSLYDHNNNTSDYSKNGAGIENYNFITTAGLKYTF	relative cleavage efficiency	less than 3.0%
